- TEST DESCRIPTION: self-splicing fitness, log relative to wild type (ln ratio); higher = more splicing; Tetrahymena group I intron in knt gene, E. coli kanamycin selection, DiMSum; sequences stand for … in CUCUCU…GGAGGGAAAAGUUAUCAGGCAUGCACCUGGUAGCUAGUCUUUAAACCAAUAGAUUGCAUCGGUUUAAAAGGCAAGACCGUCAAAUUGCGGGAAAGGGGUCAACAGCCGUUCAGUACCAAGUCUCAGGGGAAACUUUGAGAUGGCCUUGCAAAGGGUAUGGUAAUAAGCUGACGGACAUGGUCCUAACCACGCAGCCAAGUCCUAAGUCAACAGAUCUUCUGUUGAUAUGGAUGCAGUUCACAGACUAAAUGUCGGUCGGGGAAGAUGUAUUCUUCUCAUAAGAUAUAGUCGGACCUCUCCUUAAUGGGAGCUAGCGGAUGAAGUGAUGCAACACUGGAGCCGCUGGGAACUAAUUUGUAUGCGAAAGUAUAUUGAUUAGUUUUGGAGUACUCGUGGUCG;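 also: selection with 25 µg/mL kanamycin versus none on LB agar overnight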
- MEASUREMENT PARAMETERS: 30 °C
Consider the following sequences; for each one, report its self-splicing fitness (ln).
Would you mind answering with just the numeric figure?

What measured self-splicing fitness (ln) goes with UUUGAGCAAUAUUACGCCUG ?
-2.85

What measured self-splicing fitness (ln) goes with CUCUAGCAAUAUUACGUAUU ?
-2.14

What measured self-splicing fitness (ln) goes with CACAAGCAAUAUUACGCCGU ?
-2.15

What measured self-splicing fitness (ln) goes with UUCUAGCAAUAUUACGGAGU ?
-2.24

What measured self-splicing fitness (ln) goes with UGUCAGCAAUAUUACGUACU ?
-0.114

What measured self-splicing fitness (ln) goes with GUGGAGCAAUAUUACGCGGU ?
-1.16

What measured self-splicing fitness (ln) goes with AGCAAGCAAUAUUACGCGCG ?
-1.54

What measured self-splicing fitness (ln) goes with ACAUAGCAAUAUUACGUGCU ?
-0.99
